This listing pairs compounds with measured GI50.
Test system: LXFL 529
assay-summary: NCI tumour cell line growth inhibition, 48 h
Activity calls are given as the source filed them. Cut-off read from the data, not from the text of the source: active = GI50 up to about 1.1 µM and inactive = higher.
parameter-measured: GI50

compound	parameter-measured	observed
COc1ccc(/C(Cl)=C(\C=O)c2ccc(F)cc2)cc1	GI50	6.27 µM (inactive)
CCOC(=N)CC(=O)c1ccccc1	GI50	> 100 µM (inactive)
CC12C3CC4C5CC(C(C53)[C@@H]1NCc1ccccc1)C42 (some centres undefined)	GI50	> 100 µM (inactive)
Cc1ccc(NC(=O)/C(=N/NC(=O)CC#N)C2C(=O)N(c3ccccc3)N=C2N)cc1C (centres undefined)	GI50	> 100 µM (inactive)

----------
System: OVCAR-4
assay-summary: NCI tumour cell line growth inhibition, 48 h
The source made the active and inactive calls. No stated cut-off is given here; in the data, active = GI50 up to about 1.1 µM and inactive = higher. Where a SMILES comes first, the peptide text is derived from it. Non-standard residues stand in square brackets, D forms with d. Residues, ends and D or L forms follow the SMILES beside them. [ ]: non-standard residue; d: D form. ξ: configuration not given here. Phe(F5) = N[CH](Cc1c(F)c(F)c(F)c(F)c1F)C(=O)O; Pen = CC(C)(S)[C@H](N)C(=O)O; ξL = CC(C)CC(N)C(=O)O
Classes used: active, inactive

molecule	category-label
C=C1CCCCCCCCC/C=C/1SCCCSC	inactive
C=C(C)CC1=C(OCC)C(OC)(OCC)C1=O (stereo not given)	inactive
CNC(=O)CNC(=O)C(Cc1ccc(NC(=O)CCCCC(C)=O)cc1)NC(=O)C(CCC(=O)OCc1ccccc1)NC(=O)OC(C)(C)C (stereo not given)	inactive
CSCC1CC(c2ccc(Cl)cc2)=NO1 (stereo not given)	inactive
C[S+](C)CC1OC(n2cnc3c(N)ncnc32)C(O)C1O (stereo not given)	inactive
Cc1cc(C(=C2C=CC(=N)C=C2)c2ccc(N)cc2)ccc1N	inactive
CC/C(Cl)=N\OC(=O)Nc1ccc(F)cc1F	inactive
CC(C)(CN1CCCCC1)C(=O)/C=C/c1ccc(Cl)cc1	inactive
C=C(COC(C)=O)CC(/C=C(\C)CCC=C(C)C)OC(C)=O (stereo not given)	inactive
N=C1/C(=C/c2ccccc2)C(=O)N=C2SC=NN12	inactive
CCC(Oc1ccc(OC)c2ccccc(=O)c12)C(=O)O (stereo not given)	inactive
Clc1ccccc1C1SCc2nc3ccccc3n21 (stereo not given)	inactive
COC(=O)C(CC(C)C)NC(=O)C(Cc1c[nH]cn1)NC(=O)CNC(=O)C(NC(=O)C(C)NC(=O)C(Cc1c[nH]c2ccccc12)NC(=O)C(CCC(=O)O)NC(=O)C(N)Cc1c(F)c(F)c(F)c(F)c1F)C(C)C (stereo not given) (H-[Phe(F5)]EWAVGHL-OMe; configuration not given here)	inactive
CC(C)C1=C(O)C(=O)C2=C(C1=O)C(O)CC1C(C)(C)CCCC21C (stereo not given)	inactive
Cc1cccc(C)c1NC(=O)Nc1ccc(S(N)(=O)=O)cc1	inactive
Sc1cnnc2ccc(Br)cc12	inactive
CCOC1OC(CO)C(O)CC1n1ccc(=O)[nH]c1=O (stereo not given)	inactive
CN(CC(=O)O)c1ncc2c(n1)C=CCC2	inactive
CC1(C)CN=C(Nc2ccc(F)cc2)S1	inactive
O=C1CCSC(=S)N1c1ccc(Br)c(Cl)c1	inactive
FC(F)=C(c1ccc(-c2ccc(Cl)cc2)cc1)C(F)(F)F	inactive
CC(C)C(C=O)C(O)(C(F)(F)F)C(F)(F)F (stereo not given)	inactive
CCCCCCCCCCCCOP(=O)(O)OP(=O)(O)OCC1OC(n2cc(C)c(=O)[nH]c2=O)CC1O (stereo not given)	inactive
CSCC[C@H](NC(=O)C(CC(C)C)NC(=O)[C@H](Cc1c[nH]cn1)NC(=O)CNC(=O)[C@@H](NC(=O)[C@@H](C)NC(=O)[C@H](Cc1c[nH]c2ccccc12)NC(=O)[C@H](CCC(N)=O)NC(=O)[C@@H](N)CC(N)=O)C(C)(C)SC)C(N)=O (stereo not given in full) (H-NQW[dA][Pen](Me)GH[ξL]M-NH2)	inactive
CCN(CC)CCCNc1nc(=O)[nH]c(C)c1C(=O)Nc1ccc2c(c1)c1ccccc1n2CC	inactive
Cc1ccnc2nc3[nH]c4ccccc4c3cc12	inactive
c1ccc2c(c1)SCCc1cn[nH]c1-2	inactive
COc1cc2c(cc1OC)-c1cc3cc(OC)c(OC)cc3c(=O)n1CC2	inactive
O=c1c(-c2ccc3c(c2)OCO3)coc2c3c(ccc12)OCO3	inactive
Cc1c2c(n(CCc3ccc(Cl)cc3)c1C)NC(c1ccccc1)C(C#N)S2(=O)=O (stereo not given)	inactive
CN(C)CCOc1cc2c(c3ccccc13)-c1ccccc1C2=O	active
COc1cc2cnc3c4cc(OC)c(OC(C)C)cc4ccc3c2cc1OC	inactive
COc1cc(NS(C)(=O)=O)ccc1Nc1ccnc2ccc3[nH]ccc3c12	inactive
COc1ccc(S(=O)(=O)N(C)CC(=O)O)cc1	inactive
CC(C)C/C=C/C1=NN(c2cccc(S(=O)(=O)O)c2)C2(C1)SCC(=O)N2c1nc2ccccc2s1 (stereo not given)	inactive

----------
Test system: SN12C
assay-summary: NCI tumour cell line growth inhibition, 48 h
Activity calls are given as the source filed them. Cut-off read from the data, not from the text of the source: active = GI50 up to about 1.1 µM and inactive = higher.
This listing pairs compounds with measured GI50.

compound	GI50
C=CCC1(C(=O)OC(C)(C)C)C(OC)=C(C(=O)OC(C)(C)C)C2C1C(C(=O)OC(C)(C)C)=C(OC)C2(CC=C)C(=O)OC(C)(C)C (stereo unspecified)	> 100 µM (inactive)
Cn1c(N)nc(-c2ccc(Cl)cc2)c1SSc1c(-c2ccc(Cl)cc2)nc(N)n1C	3.42 µM (inactive)
Brc1ccc(C2CC3(c4ccccc4)ON=C(c4ccccc4)N3c3ccccc3S2)cc1 (stereo unspecified)	> 100 µM (inactive)
O=c1cc(N2CCOCC2)[nH]c(=O)n1-c1cccc(C(F)(F)F)c1	> 100 µM (inactive)
COC(=O)c1c(C)c2c(c(C)c1C(=O)OC)-c1c(C)ccc3ccc(C)c-2c13	> 93.8 µM (inactive)
CCn1c(=N)sc2nc3ccccc3n2c1=O	> 100 µM (inactive)
Cc1cc(=O)n2nc(CCl)sc2n1	14.3 µM (inactive)
O=C(CC(O)(c1ccccc1)c1ccc(Cl)cc1)NC(=O)c1ccccc1O (stereo unspecified)	3.76 µM (inactive)
COC(=O)C1C(O)C(C)C(O)C(C)(O)/C=C\C=C(C)C(=O)Nc2c(C)c(OC(C)=O)c3c(c2O)C(=O)C(C)=C2OCOC(=C23)C(C)=CC(C)(O)C(O)C(C)C1OC(C)=O (stereo unspecified)	24 µM (inactive)
O=C(O)CO/N=C1/C(=C2/C(=O)Nc3ccccc32)Nc2ccccc21	88.3 µM (inactive)
CC(C)(C)OC(=O)N1N=CCC1c1ccccc1 (stereo unspecified)	> 100 µM (inactive)
N#Cc1ccc(Oc2ccccc2)cc1C#N	96.4 µM (inactive)
C[C@]12CC[C@@H]3c4cc(Br)c(O)c(Br)c4CC[C@H]3[C@@H]1CCC2=O	27.7 µM (inactive)
O=C1C(NS(=O)(=O)c2ccccc2)=C(n2ccnc2)C(=O)c2ccccc21	> 100 µM (inactive)
COc1cc2cnc3c4cc(OC)c(OC(C)C)cc4ccc3c2cc1OC	> 100 µM (inactive)
CCC(C)C1=C(OC(C)=O)[N+]2([O-])Oc3ccc(-c4c(OC(C)=O)c(OC(C)=O)c(-c5ccc(OC(C)=O)cc5)c(OC(C)=O)c4OC(C)=O)cc3OC2(C(C)CC)C(=O)N1OC(C)=O (stereo unspecified)	34.3 µM (inactive)
Cc1ccc(S(=O)(=O)NC(=O)OC23COCN2COC3)cc1	> 100 µM (inactive)
COC12OCCN(CCO)C1=CC(=O)C1(C)N=NC(C)C12 (stereo unspecified)	> 100 µM (inactive)
CC(C)(C)OC(=O)NC1CC=CCC1NC(=O)OC(C)(C)C (stereo unspecified)	> 100 µM (inactive)
CC1(C)SC2C(NC(=O)C(C(=O)O)c3ccccc3)C(=O)N2C1C(=O)O (stereo unspecified)	> 100 µM (inactive)
CC(C)(O)C1OCC(C2CCC3(C)C4=CCC5C(C)(C)C(O)CCC5(C)C4CCC23C)CC1O (stereo unspecified)	14.4 µM (inactive)

----------
Test system: LOX IMVI
assay-summary: NCI tumour cell line growth inhibition, 48 h
Active and inactive are the calls of the source. Cut-off read from the data, not from the text of the source: active = GI50 up to about 1.1 µM and inactive = higher.
parameter-measured: GI50

compound	experimental-system	parameter-measured	observed
O=C(OCC1OC(n2nc(Cn3nnc(-c4cccnc4)n3)n(-c3cccc4ccccc34)c2=S)C(OC(=O)c2ccccc2)C1OC(=O)c1ccccc1)c1ccccc1 (configuration not stated)	LOX IMVI	GI50	> 100 µM (inactive)
O=C(c1ccc2ccccc2c1)N(Cc1cccnc1)C(=S)N(Cc1cccnc1)C(=O)c1ccc2ccccc2c1	LOX IMVI	GI50	19 µM (inactive)
COc1ccc(C2(CC(C)C)CCNC2)cc1OC (configuration not stated)	LOX IMVI	GI50	> 100 µM (inactive)
CCc1cc(CCC(=O)Nc2ccccc2[N+](=O)[O-])nc(S)n1	LOX IMVI	GI50	> 100 µM (inactive)
c1ccc2c(c1)[Se]c1ccccc1[Se]2	LOX IMVI	GI50	> 100 µM (inactive)
Cc1ccccc1N1C(N)=C(C#N)C(C#N)(C#N)C1c1ccccc1 (configuration not stated)	LOX IMVI	GI50	17.7 µM (inactive)
COc1ccc(/C=C2\C[C@H]3[C@@H]4CCC5=C/C(=N/O)CC[C@]5(C)[C@H]4CC[C@]3(C)\C2=N\O)cc1OC	LOX IMVI	GI50	18.8 µM (inactive)
